# experimental.target: human MT2 receptor (Homo sapiens, UniProt P49286)
# Construct: melatonin MT1 and MT2 receptors cDNA were individually subcloned into pcDNA3 and introduced into NIH-3T3 cells using Lipofectamine; expressed in transfected cells
# Sequence (P49286 whole entry): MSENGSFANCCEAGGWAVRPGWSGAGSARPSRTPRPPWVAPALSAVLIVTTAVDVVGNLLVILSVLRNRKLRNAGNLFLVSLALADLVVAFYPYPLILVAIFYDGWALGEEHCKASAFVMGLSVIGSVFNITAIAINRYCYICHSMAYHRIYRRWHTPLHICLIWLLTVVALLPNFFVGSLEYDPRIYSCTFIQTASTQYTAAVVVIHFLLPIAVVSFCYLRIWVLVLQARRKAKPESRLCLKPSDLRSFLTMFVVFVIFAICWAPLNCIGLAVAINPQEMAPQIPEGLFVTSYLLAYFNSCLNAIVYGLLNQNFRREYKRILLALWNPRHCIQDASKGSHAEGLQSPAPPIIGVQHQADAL
# measurement.description: Melatonin receptor binding assay (MT2), 2-[125I]-iodomelatonin
# measurement.setup: membrane homogenates of NIH-3T3 cells expressing MT2; 2-[125I]-iodomelatonin 0.2 nM; 37° C., 1 hour; read-out: MT2 IC50
# Experimental: Melatonin receptor binding assay. Membrane homogenates: melatonin MT1 and MT2 receptors cDNA were individually subcloned into pcDNA3 and introduced into NIH-3T3 cells using Lipofectamine. […] For preparing membrane homogenates, pellets are thawed on ice, and re-suspended in TME buffer in the presence of 10 μg/ml aprotinin and leupeptin, and 100 μM phenylmethylsulfonylfluoride. The cells were then homogenized using a dounce homogenizer, and centrifuged. […]
pIC50: −log10 of the molar value.
property.name: pIC50

compound | experimental.target | property.name | experimental.result
CC(C)COC(=O)N1CCc2cc3c(cc2C1CCc1ccc(F)cc1)OCO3 (stereo not shown) | human MT2 receptor (Homo sapiens, UniProt P49286) | pIC50 | 6.00 to 7.00
CC(C)COC(=O)N1CCc2cc3c(cc2C1CCc1ccc(F)cc1)OCC3 (stereo not shown) | human MT2 receptor (Homo sapiens, UniProt P49286) | pIC50 | 6.00 to 7.00
COc1ccc2c(c1)C(CCc1ccc(F)cc1)N(C(=O)C1CC1)CC2 (stereo not shown) | human MT2 receptor (Homo sapiens, UniProt P49286) | pIC50 | > 7.00
COc1cccc(CCC2c3cc(OC)c(OC)cc3CCN2C(C)=O)c1 (stereo not shown) | human MT2 receptor (Homo sapiens, UniProt P49286) | pIC50 | > 7.00
COc1ccc2c(c1)C(CCc1ccc(F)cc1)N(C(C)=O)CC2 (stereo not shown) | human MT2 receptor (Homo sapiens, UniProt P49286) | pIC50 | > 7.00
CC(C)(C)CC(=O)N1CCc2cc3c(cc2C1CCc1ccc(Cl)cc1)OCO3 (stereo not shown) | human MT2 receptor (Homo sapiens, UniProt P49286) | pIC50 | 6.00 to 7.00
COc1cc2c(cc1OC)C(CC(c1ccccc1)c1ccc(Cl)cc1)N(C(C)=O)CC2 (stereo not shown) | human MT2 receptor (Homo sapiens, UniProt P49286) | pIC50 | > 7.00
COc1cc2c(cc1Br)CCN(C(=O)c1ccc(C(F)(F)F)cc1)C2CC(c1ccccc1)c1ccccc1 (stereo not shown) | human MT2 receptor (Homo sapiens, UniProt P49286) | pIC50 | 6.00 to 7.00
COC(=O)N1CCc2cc3c(cc2C1CCc1ccc(F)cc1)OCC3 (stereo not shown) | human MT2 receptor (Homo sapiens, UniProt P49286) | pIC50 | 6.00 to 7.00
CCCC(=O)N1CCc2cc3c(cc2C1CCc1ccc(F)cc1)OCO3 (stereo not shown) | human MT2 receptor (Homo sapiens, UniProt P49286) | pIC50 | > 7.00
CC(=O)OCC(=O)N1CCc2cc3c(cc2C1CCc1ccc(F)cc1)OCC3 (stereo not shown) | human MT2 receptor (Homo sapiens, UniProt P49286) | pIC50 | 6.00 to 7.00
COc1ccc2c(c1)C(CCc1ccc(F)cc1)N(C(=O)C1CCCC1)CC2 (stereo not shown) | human MT2 receptor (Homo sapiens, UniProt P49286) | pIC50 | > 7.00
COc1ccc2c(c1)C(CCc1ccc(F)cc1)N(C(=O)CCl)CC2 (stereo not shown) | human MT2 receptor (Homo sapiens, UniProt P49286) | pIC50 | > 7.00
COc1cc2c(cc1OC)C(CC(c1ccccc1)c1ccccc1)N(C(C)=O)CC2 (stereo not shown) | human MT2 receptor (Homo sapiens, UniProt P49286) | pIC50 | > 7.00
COc1cc2c(cc1Br)CCN(C(=O)CC(C)(C)C)C2CC(c1ccccc1)c1ccccc1 (stereo not shown) | human MT2 receptor (Homo sapiens, UniProt P49286) | pIC50 | 6.00 to 7.00
COc1cc2c(cc1OC)C(CC(C)c1ccccc1)N(C(C)=O)CC2 (stereo not shown) | human MT2 receptor (Homo sapiens, UniProt P49286) | pIC50 | 6.00 to 7.00
O=C(CCl)N1CCc2cc3c(cc2C1CCc1ccc(F)cc1)OCO3 (stereo not shown) | human MT2 receptor (Homo sapiens, UniProt P49286) | pIC50 | > 7.00
O=C(C1CCCC1)N1CCc2cc3c(cc2C1CCc1ccc(F)cc1)OCO3 (stereo not shown) | human MT2 receptor (Homo sapiens, UniProt P49286) | pIC50 | > 7.00
COc1ccc2c(c1)C(CC(c1ccccc1)c1ccccc1)N(C(=O)c1cc(C(F)(F)F)cc(C(F)(F)F)c1)CC2 (stereo not shown) | human MT2 receptor (Homo sapiens, UniProt P49286) | pIC50 | 6.00 to 7.00
